# Test system: THP-1
# assay.remarks: cell viability (% survival relative to DMSO control, bortezomib = 0%); higher = less cytotoxic
# condition.details: 100 nM; 72 h
So I've got a bunch of compounds here, and I need their cell viability values.
One number for each entry, in %.

Please review the following examples before continuing.
compound | cell viability, %
O=C(NCCN1CCC(n2c(O)nc3ccccc32)CC1)c1cc2cc(F)ccc2[nH]1 | 101
CCCc1nc(C)c2c(=O)nc(-c3cc(S(=O)(=O)N4CCN(CC)CC4)ccc3OCC)[nH]n12 | 107
CN(Cc1cnc2nc(N)nc(N)c2n1)c1ccc(C(=O)N[C@@H](CCC(=O)O)C(=O)O)cc1 [Methotrexate] | 13
CO[C@H]1C[C@@H]2CC[C@@H](C)[C@@](O)(O2)C(=O)C(=O)N2CCCC[C@H]2C(=O)O[C@H]([C@H](C)C[C@@H]2CC[C@@H](OCCO)[C@H](OC)C2)CC(=O)[C@H](C)/C=C(\C)[C@@H](O)[C@@H](OC)C(=O)[C@H](C)C[C@H](C)/C=C/C=C/C=C/1C | 66.9
CC(C)(C)c1ccc(S(=O)(=O)NCc2ccc(C(=O)Nc3cccnc3)cc2)cc1 | 101
O=C(Nc1ccccc1)c1cc([N+](=O)[O-])ccc1Cl | 102

Let us examine a further case.
Please give the documented cell viability of CCN(CC)C(=S)SSC(=S)N(CC)CC
48.1

###

# System: HL-60
# assay.remarks: cell viability (% survival relative to DMSO control, bortezomib = 0%); higher = less cytotoxic
# condition.details: 10 nM; 72 h
measured.property: cell viability (%)
Answers are plain numbers, in %.

chemical.smiles | test.system | cell viability / %
CCc1oc2ccccc2c1C(=O)c1cc(Br)c(O)c(Br)c1 | HL-60 | 88.1
O=c1cc(N2CCOCC2)oc2c(-c3ccccc3)cccc12 | HL-60 | 118
Cc1c2c(=O)n(-c3ccccc3Cl)[nH]c2cc(=O)n1Cc1ccccn1 | HL-60 | 96.2

Batch request: cell viability for each of the following compounds.
1. N[C@@H](CC(=O)N1CCn2c(nnc2C(F)(F)F)C1)Cc1cc(F)c(F)cc1F
2. CCN(CC)C(=S)SSC(=S)N(CC)CC
3. c1cc(-c2cnn3cc(-c4ccc(OCCN5CCCCC5)cc4)cnc23)ccn1
4. CN(CCOc1ccc(Cc2sc(O)nc2O)cc1)c1ccccn1

95.5
104
110
111

Batch request: cell viability for each of the following compounds.
1. Cc1cc(C(=O)NNCc2ccccc2)no1
2. C[C@]12C=CC(=O)C=C1CC[C@@H]1[C@@H]2[C@@H](O)C[C@@]2(C)[C@H]1CC[C@]2(O)C(=O)CO

90.1
93.5

###

# System: KU-812
# condition.details: 72 h
measured.property: IC50 (cell viability)

Please review the following examples before continuing.
molecule | IC50 (cell viability)
O=C([O-])CC(O)(C(=O)[O-])C(O)C(=O)[O-].[K+].[K+].[K+] (stereo not drawn) [Hydroxycitrate] | > 10 µM
Cc1[nH]nc(C(F)(F)F)c1Cc1sc2c(c1C(=O)N1C[C@](C)(O)CO1)c(=O)n(C)c(=O)n2C(C)C | > 10 µM

Consider the molecule Cc1ccc(-c2cc(C(F)(F)F)nn2-c2ccc(S(N)(=O)=O)cc2)cc1 tested on KU-812; state its IC50 (cell viability).
> 10 µM
